- tested-on: PKM2 (Homo sapiens, UniProt P14618)
- Sequence (P14618 whole entry): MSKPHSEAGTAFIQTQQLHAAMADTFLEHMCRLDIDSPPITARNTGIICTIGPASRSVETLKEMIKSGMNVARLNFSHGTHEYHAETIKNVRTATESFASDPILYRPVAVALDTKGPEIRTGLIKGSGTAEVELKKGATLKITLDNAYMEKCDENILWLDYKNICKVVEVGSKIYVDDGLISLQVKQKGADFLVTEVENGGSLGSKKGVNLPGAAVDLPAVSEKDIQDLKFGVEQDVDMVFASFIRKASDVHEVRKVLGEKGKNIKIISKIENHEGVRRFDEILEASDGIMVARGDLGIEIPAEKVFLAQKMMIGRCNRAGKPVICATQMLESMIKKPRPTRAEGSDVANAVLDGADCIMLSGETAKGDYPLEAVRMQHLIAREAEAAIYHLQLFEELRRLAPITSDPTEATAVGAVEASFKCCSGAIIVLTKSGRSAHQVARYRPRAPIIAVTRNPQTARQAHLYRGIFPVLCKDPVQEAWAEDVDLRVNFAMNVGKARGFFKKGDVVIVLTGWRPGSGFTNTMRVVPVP
- assay-method-text: PKM2 Assay
- Type: biochemical
- particulars: activation of PKM2 enzyme, LDH-coupled, absorbance at 340 nm; read-out: PKM2_AC50
assay-metric: AC50

Use the examples below as a reference point.
compound	AC50
O=S(=O)(Nc1ccc(F)c(Cl)c1)c1ccnn1-c1nccs1	1000 to 10000 nM
Cc1cc(NS(=O)(=O)c2cccn2-c2ncccc2Cl)ccc1F [drawing 161]	100 to 500 nM
O=S(=O)(Nc1ccc(F)c(Cl)c1)c1cccn1-c1ccnc(Cl)n1	< 100 nM
O=S(=O)(Nc1ccc(F)c(Cl)c1)c1cncn1-c1ncccn1 [drawing 117]	100 to 500 nM
Cc1cc(C)cc(NS(=O)(=O)c2cncn2-c2cnccn2)c1	< 100 nM

Consider the compound shown here: O=S(=O)(Nc1ccc(Cl)cc1)c1cccn1-c1ncccn1 What is its recorded AC50?
1000 to 10000 nM

Same read-out for Cc1cc(NS(=O)(=O)c2ccnn2-c2nccs2)ccc1F ?
1000 to 10000 nM

====

- tested-on: PKM2 (Homo sapiens, UniProt P14618)
- assay-method-text: PKM2 Assay
- Assay type: biochemical
- particulars: activation of PKM2 enzyme, LDH-coupled, absorbance at 340 nm; read-out: PKM2_AC50
assay-metric: AC50

Use the examples below as a reference point.
molecule	AC50
O=S(=O)(Nc1ccc(F)c(Cl)c1)c1cncn1-c1nccs1	0.5 to 1 µM
Cc1ccc(NS(=O)(=O)c2cccn2-c2ncc(C(F)(F)F)cc2Cl)cc1	< 0.1 µM
Cc1ccc(NS(=O)(=O)c2cncn2-c2ncc(C(F)(F)F)cc2Cl)cc1C	< 0.1 µM
O=S(=O)(Nc1ccc(F)c(Cl)c1)c1cncn1-c1cnccn1	0.1 to 0.5 µM
O=S(=O)(Oc1ccc(Cl)cc1)c1cccn1-c1ncc(C(F)(F)F)cc1Cl	0.5 to 1 µM

For PKM2 (Homo sapiens, UniProt P14618), provide AC50 of O=S(=O)(Nc1ccc(Cl)cc1)c1cccn1-c1ccnc(Cl)n1 please.
0.5 to 1 µM

Same read-out for O=S(=O)(Nc1cccc(Cl)c1)c1cccn1-c1ncc(C(F)(F)F)cc1Cl ?
< 0.1 µM

Same read-out for O=S(=O)(Nc1cc(F)cc(F)c1)c1cncn1-c1ccnc(Cl)n1 ?
> 10 µM

Same read-out for O=S(=O)(Nc1ccc(F)c(Cl)c1)c1cncn1-c1nccc(Cl)n1 ?
1 to 10 µM

Same read-out for O=S(=O)(Nc1cccc(Cl)c1)c1cncn1-c1cccs1 ?
1 to 10 µM

Same read-out for O=S(=O)(Nc1ccc2c(c1)OCCO2)c1cncn1-c1ccc(C(F)(F)F)cn1 ?
> 10 µM

Same read-out for COc1cc(NS(=O)(=O)c2cncn2-c2ncc(C(F)(F)F)cc2Cl)cc(C(F)(F)F)c1 [drawing 144] ?
0.5 to 1 µM

Same read-out for O=S(=O)(Nc1ccc(F)cc1)c1cncn1-c1ncccn1 ?
1 to 10 µM

Same read-out for O=S(=O)(Nc1cc(F)cc(F)c1)c1cncn1-c1ncc(C(F)(F)F)cc1Cl ?
0.5 to 1 µM

Same read-out for COc1cc(NS(=O)(=O)c2cccn2-c2ncc(C(F)(F)F)cc2Cl)cc(OC)c1 ?
0.1 to 0.5 µM

Same read-out for O=S(=O)(Nc1cc(Cl)cc(Cl)c1)c1cccn1-c1ncc(C(F)(F)F)cc1Cl ?
1 to 10 µM
